Reference source: PubChem BioAssay (NCATS)

# Test system: HeLa
# experiment.description: Primary qHTS to identify gynecologic anti-cancer compounds using libraries of approved drugs and bioactive compounds (AID 1345084); also: nearly all actives have a fitted effect of over 55% in size
# condition.description: Gynecologic cancer cell panel viability, ATPlite luminescence, 48 h; series mostly up to 57.5 µM
Inconclusive results are not listed. The source made the active and inactive calls. Calls follow the shape of the dose curve; as a rule, active = well fitted cell-killing curve with a large enough effect; inconclusive = small, poorly fitted or top-dose-only effect, or effect the other way; inactive = flat fitted curve, though single readings scatter.
Hi there, use one of these labels in your reply, thanks! active, inactive

See these solved cases before continuing.
C=C(C)C(=O)O[C@H]1[C@@H]2[C@H](C)C(=O)O[C@@H]2C[C@@H](C)[C@@H]2C=CC(=O)[C@]21C; inactive
C=C[C@H]1CN2CCC1C[C@H]2[C@H](O)c1ccnc2ccccc12 (some centres not stated); inactive
O=C1N[C@@H](Cc2ccccc2)CN2CCCC[C@@H]12; inactive
COC1CC(O[C@H]2CC[C@]3(C)C4CC[C@]5(C)[C@@H](C6=CC(=O)OC6)[C@@H](OC(C)=O)C[C@]5(O)C4CC[C@@H]3C2)OC(C)C1O (some centres not stated); active
N#Cc1ccc([C@H]2CCCC[C@H]2O)cc1C(F)(F)F; inactive

Input line: Recorded test call requested for CCC1CC2CN3CCc4c([nH]c5ccccc45)C(C(=O)OC)(C2)C13 (configuration not stated)
Output line: inactive

Input line: I would be grateful if you could indicate the recorded call for CC(=O)O[C@@H]1[C@H]2CC[C@H]3[C@@](C)(O)[C@@H]4C[C@H](O)C(C)(C)[C@@]4(O)[C@H](O)C[C@@]13C[C@@]2(C)O .
Output line: inactive

Input line: Would you mind telling me which call this test gave CCCCN1[C@@H]2CC[C@H]1CC(OC(c1ccc(F)cc1)c1ccc(F)cc1)C2 (some centres not stated) ?
Output line: inactive

Input line: What outcome does the record of this test show for C#C[C@]1(O)CC[C@H]2[C@@H]3CC[C@H]4Cc5nc6nc7ccccc7n6cc5C[C@]4(C)[C@H]3CC[C@@]21C ?
Output line: inactive

Input line: Assay result, entry CN(C(=O)C(c1ccccc1)c1ccccc1)[C@H](CN1CC[C@H](O)C1)c1ccccc1 — outcome?
Output line: inactive

Input line: Could you please tell me the result logged for CN1CN(c2ccccc2)C2(CCN(CCCC(=O)c3ccc(F)cc3)CC2)C1=O in this assay?
Output line: inactive

Input line: Outcome? C/C=C(\C)C(=O)O[C@@H]1[C@@H](C)[C@]2(O)C3C=C(C)C(=O)[C@@]3(O)CC(CO)=C[C@H]2C2C(C)(C)[C@@]21OC(=O)C(C)CC (some centres not stated)
Output line: inactive

Input line: Entry CO/C1=C\C(C)=C\[C@@H](C)[C@@H](O)[C@@H](C)C/C(C)=C/C=C/[C@H](OC)[C@@H]([C@@H](C)[C@@H](O)[C@H](C)[C@@]2(O)C[C@@H](O)[C@H](C)[C@@H](C(C)C)O2)OC1=O : call = ?
Output line: active

Input line: Status in this test for c1ccc([C@@H]2C[C@H]2NC2CCNCC2)cc1 ?
Output line: inactive

Input line: Look up the recorded call for CC(C)(C)[C@]1(O)C[C@@H]2OC(=O)C[C@@]23C(=O)O[C@@H]2OC(=O)[C@@H](O)[C@]213 in this test.
Output line: inactive

Input line: Tell me the assay call for C=C(CO)C(=O)O[C@H]1CC(=C)[C@@H]2C[C@H](O)C(=C)[C@@H]2[C@H]2OC(=O)C(=C)[C@@H]21 please.
Output line: inactive

Input line: I would be grateful if you could indicate the recorded call for NC(=O)[C@@H](CC1CC1)[C@@H](CCC(F)(F)F)C(=O)N[C@H]1N=C(c2ccccc2)c2cccc(F)c2NC1=O .
Output line: inactive
